Target: TDP-43 (Homo sapiens, UniProt Q13148 1-414)
Sequence (Q13148 whole entry): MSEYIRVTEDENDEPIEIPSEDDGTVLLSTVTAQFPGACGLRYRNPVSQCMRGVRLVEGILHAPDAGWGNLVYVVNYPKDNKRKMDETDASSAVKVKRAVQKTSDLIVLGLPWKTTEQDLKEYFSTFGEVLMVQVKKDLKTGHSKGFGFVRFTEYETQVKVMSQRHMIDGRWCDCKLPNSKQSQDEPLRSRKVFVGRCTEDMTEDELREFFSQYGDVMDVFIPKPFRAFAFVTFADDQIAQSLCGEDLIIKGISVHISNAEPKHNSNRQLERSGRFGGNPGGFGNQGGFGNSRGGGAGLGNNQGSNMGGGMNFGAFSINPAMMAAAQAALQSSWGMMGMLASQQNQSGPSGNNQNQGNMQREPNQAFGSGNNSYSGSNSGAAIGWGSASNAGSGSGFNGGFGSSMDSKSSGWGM
Assay: RNA Bind-n-Seq with designed 260-mer pool; 25 mM Tris-HCl, 150 mM KCl, 3 mM MgCl2, BSA (printed 500 mg/mL), 20 units/mL SUPERase IN; pH not stated; 500 nM RNA pool, 1 h, 4 C; TDP-43 5, 50, 500 nM; high values mean tight binding
Conditions: protein: recombinant; tags: SBP (GST cleaved off with PreScission; pGEX-GST-SBP)
In all, about 9,900 sequences were measured (“r (bound/input frequency ratio)”: median about 0.7, highest 2% from about 6.5 on). What follows is part of a selection rich in the highest values, with near analogues and random picks from the rest.
readoutType: binding signal

Look up binding signal for this binder: ENSMUSG00000061578.1443|Ksr2|85:89;180:184 (ssRNA) RNA: GGGAGUUCUACAGUCCGACGAUCGCUUCGAUAUCCGCAUGCUAGCAAGUAGGAUGGAUGGAUGAGUGAGUGGAUAGGUAGGUAUAUAAAUGGAUGGAUGGGUGAUGGAUGGGUAAAUGAAUGGAUAGCAUACUGAAUGAAUGGAUGAUGGAUGAAUGGAUGGGUAGGUGGGUAGAUAGGUAUAUGAAUGAAUGGAUGAAUGGAUGGGUGAAUGGAUGGAUAGCAUACUGAAUAAAUGGAUGGAUGGAUGGAUUGAUUUGUGAAUGAAUGGAUGAAUGGAUGGGUAGGUGGGUGGAUGCAUAGGCUCUUGCGGUCGCACUAGUGUGGAAUUCUCGGGUGUCAAGG
6.75 R (bound/input frequency ratio)

Cited source: paper PMC12864922
